Test system: T1, apical domain of human CD71 (human, UniProt P02786 189-383, limits assumed)
T1 construct: domain: apical domain; Screen 4 panned on human apical domains, the ELISA text says only 'apical domain'
T1 sequence (P02786 189-383 limits assumed): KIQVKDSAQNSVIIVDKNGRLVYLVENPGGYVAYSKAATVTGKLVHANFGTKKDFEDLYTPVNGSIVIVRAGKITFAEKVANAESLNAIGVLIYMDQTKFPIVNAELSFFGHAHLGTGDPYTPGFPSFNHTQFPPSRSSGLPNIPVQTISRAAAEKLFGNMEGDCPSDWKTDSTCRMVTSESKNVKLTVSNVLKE
Method notes: primary ELISA, RLU over HSA
Recorded metric: Apical domain:HSA
# answer = number (no unit)

Below: 3 binders and their reported Apical domain:HSA.
Binder	Recorded metric	Observed result
CD71-binding FN3 domain of SEQ ID NO: 454 (designed binder) MLPAPKNLVVSRVTEDSARLSWTAPDAAFDSFFIGYLEPQPPGEAINLTVPGSERSYDLTGLKPGTEYNVTIQGVKGGFPSYPLQASFTT	Apical domain:HSA	227
CD71-binding FN3 domain of SEQ ID NO: 526 (designed binder) MLPAPKNLVVSRVTEDSARLSWTAPDAAFDSFFIGYLEPQPPGEAISLIVPGSERSYDLTGLKPGTEYNVTIQGVKGGFPSDPLIAIFTT	Apical domain:HSA	721
CD71-binding FN3 domain of SEQ ID NO: 512 (designed binder) MLPAPKNLVVSRVTEDSARLSWTAPDAAFDSFFIGYLEPQPPGEAIDLWVPGSERSYDLTGLKPGTEYNVTIQGVKGGFPSDPLDAHFTT	Apical domain:HSA	233

### Prompt # return recorded Apical domain:HSA for input CD71-binding FN3 domain of SEQ ID NO: 513 (designed binder) MLPAPKNLVVSRVTEDSARLSWTAPDAAFDSFFIGYLEPQPPGEAISLYVPGSERSYDLTGLKPGTEYNVTIQGVKGGFPSLPLAAQFTT
### Response 201
